Test system: K86415-001-R-J1-PDC complex spheroids, viability
Test: Anticancer human tumor K86415-001-R-J1-PDC patient-derived lung adenocarcinoma cell line growth inhibition [RAS]; active = viability on the fitted dose curve at most 10% of control; inactive = the rest
Conditions: second compound 0.00949 µM; first compound 0.1 µM
The categories you may choose from are active, inactive

Take a look at these entries with their results.
| Compound | Label |
| --- | --- |
| CCC(CC)c1cc(NC2CCC(N)C2)n2nccc2n1 (centres undefined) + CCn1c(-c2cccnc2C(C)OC)c2c3cc(ccc31)N1CCOC(CC(NC(=O)C(C(C)C)N(C)C(=O)C3(F)CCN(C(=O)C#CC(C)(C)N(C)C)CC3)C(=O)N3CCCC(N3)C(=O)OCC(C)(C)C2)C1 | inactive |
| CC(=O)OC12COC1CC(O)C1(C)C(=O)C(O)C3=C(C)C(OC(=O)C(O)C(NC(=O)OC(C)(C)C)c4ccccc4)CC(O)(C(OC(=O)c4ccccc4)C21)C3(C)C (centres undefined) + CCn1c(-c2cc(N3CCN(C)CC3)cnc2C(C)OC)c2c3cc(ccc31)-c1csc(n1)CC(NC(=O)C1CC1C)C(=O)N1CCCC(N1)C(=O)OCC(C)(C)C2 | active |

Task item: # fetch the recorded call for CCN1CCN(Cc2ccc(Nc3ncc(F)c(-c4cc(F)c5nc(C)n(C(C)C)c5c4)n3)nc2)CC1 + CCn1c(-c2cccnc2C(C)OC)c2c3cc(ccc31)N1CCOC(CC(NC(=O)C(C(C)C)N(C)C(=O)C3(F)CCN(C(=O)C#CC(C)(C)N(C)C)CC3)C(=O)N3CCCC(N3)C(=O)OCC(C)(C)C2)C1 here
Reply: inactive

Task item: Record: CC(C)n1nc(-c2ccc3oc(N)nc3c2)c2c(N)ncnc21 + CCn1c(-c2cccnc2C(C)OC)c2c3cc(ccc31)N1CCOC(CC(NC(=O)C(C(C)C)N(C)C(=O)C3(F)CCN(C(=O)C#CC(C)(C)N(C)C)CC3)C(=O)N3CCCC(N3)C(=O)OCC(C)(C)C2)C1
Reply: active

###

Test system: K86415-001-R-J1-PDC complex spheroids, viability
Test: Anticancer human tumor K86415-001-R-J1-PDC cell line growth inhibition [RAS]; active means viability on the fitted dose curve at most 10% of control; inactive means the rest;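 note: spheroids exposed to agents for seven days before readout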
Details: second compound 0.00949 µM; first compound 0.00949 µM
The categories you may choose from are active, inactive

Take a look at these entries with their results.
| Molecule | Label |
| --- | --- |
| CC1(C)CCC(Nc2ncc(C(F)(F)F)c(-c3c[nH]c4c(P(C)(C)=O)c(C#N)ccc34)n2)CN1 (centres undefined) + CCn1c(-c2cccnc2C(C)OC)c2c3cc(ccc31)N1CCOC(CC(NC(=O)C(C(C)C)N(C)C(=O)C3(F)CCN(C(=O)C#CC(C)(C)N(C)C)CC3)C(=O)N3CCCC(N3)C(=O)OCC(C)(C)C2)C1 | inactive |
| CC1(C)CCC(Nc2ncc(C(F)(F)F)c(-c3c[nH]c4c(P(C)(C)=O)c(C#N)ccc34)n2)CN1 (centres undefined) + CCn1c(-c2cc(N3CCN(C)CC3)cnc2C(C)OC)c2c3cc(ccc31)-c1csc(n1)CC(NC(=O)C1CC1C)C(=O)N1CCCC(N1)C(=O)OCC(C)(C)C2 | inactive |
| CCc1c2c(nc3ccc(O)cc13)-c1cc3c(c(=O)n1C2)COC(=O)[C@]3(O)CC + CCn1c(-c2cc(N3CCN(C)CC3)cnc2C(C)OC)c2c3cc(ccc31)-c1csc(n1)CC(NC(=O)C1CC1C)C(=O)N1CCCC(N1)C(=O)OCC(C)(C)C2 | active |

Task item: # fetch the recorded call for CCc1c2c(nc3ccc(O)cc13)-c1cc3c(c(=O)n1C2)COC(=O)[C@]3(O)CC + CCn1c(-c2cccnc2C(C)OC)c2c3cc(ccc31)N1CCOC(CC(NC(=O)C(C(C)C)N(C)C(=O)C3(F)CCN(C(=O)C#CC(C)(C)N(C)C)CC3)C(=O)N3CCCC(N3)C(=O)OCC(C)(C)C2)C1 here
Reply: active
